Target: Neuropeptide Y receptor type 4 (Homo sapiens, UniProt P50391)
Sequence (P50391 whole entry): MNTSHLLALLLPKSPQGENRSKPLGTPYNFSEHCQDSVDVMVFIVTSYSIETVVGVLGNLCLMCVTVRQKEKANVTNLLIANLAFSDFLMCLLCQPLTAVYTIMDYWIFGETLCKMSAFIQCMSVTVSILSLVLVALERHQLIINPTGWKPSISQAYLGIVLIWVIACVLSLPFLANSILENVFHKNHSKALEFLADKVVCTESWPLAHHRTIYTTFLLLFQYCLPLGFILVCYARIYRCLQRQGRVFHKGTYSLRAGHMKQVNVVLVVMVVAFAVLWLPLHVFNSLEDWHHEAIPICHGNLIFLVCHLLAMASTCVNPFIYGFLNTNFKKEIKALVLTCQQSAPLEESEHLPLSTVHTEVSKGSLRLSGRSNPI
Test: Agonist activity at human Y4 receptor expressed in sf9 cells assessed as hydrolysis of [gamma-33P]GTP after 2 mins by scintillation counting analysis
Residues, ends and D or L forms follow the SMILES beside them.
quantity: EC50 (nM)
Reply with just the number (in nM).

## Input State EC50 on Neuropeptide Y receptor type 4 (Homo sapiens, UniProt P50391). Entry: CCCC[C@H](NC(=O)[C@H](CC(N)=O)NC(=O)[C@@H](NC(=O)[C@H](Cc1ccc(O)cc1)NC(=O)[C@H](CCCNC(=N)N)NC(=O)[C@H](CCCNC(=N)N)NC(C)=O)[C@@H](C)CC)C(=O)N[C@@H](CC(C)C)C(=O)N[C@H](C(=O)N[C@@H](CCCNC(=N)N)C(=O)N[C@H]1CC[C@H]1C(=O)N[C@@H](CCCNC(=N)N)C(=O)N[C@@H](Cc1ccc(O)cc1)C(N)=O)[C@@H](C)O (HELM PEPTIDE1{[ac].R.R.Y.I.N.[Nle].L.T.R.[O=C([C@@H]1CC[C@@H]1N[*:1])[*:2]].R.Y.[am]}$$$$V2.0)
## Output 284

## Input State EC50 on Neuropeptide Y receptor type 4 (Homo sapiens, UniProt P50391). Entry: CCCC[C@H](NC(=O)[C@H](CC(N)=O)NC(=O)[C@@H](NC(=O)[C@H](Cc1ccc(O)cc1)NC(=O)[C@H](CCCNC(=N)N)NC(=O)[C@H](CCCNC(=N)N)NC(C)=O)[C@@H](C)CC)C(=O)N[C@@H](CC(C)C)C(=O)N[C@H](C(=O)N[C@@H](CCCNC(=N)N)C(=O)N[C@H]1CCC[C@H]1C(=O)N[C@@H](CCCNC(=N)N)C(=O)N[C@@H](Cc1ccc(O)cc1)C(N)=O)[C@@H](C)O (HELM PEPTIDE1{[ac].R.R.Y.I.N.[Nle].L.T.R.[O=C([C@@H]1CCC[C@@H]1N[*:1])[*:2]].R.Y.[am]}$$$$V2.0)
## Output 51

## Input State EC50 on Neuropeptide Y receptor type 4 (Homo sapiens, UniProt P50391). Entry: CC[C@H](C)[C@H](NC(=O)[C@H](Cc1ccc(O)cc1)NC(=O)[C@H](Cc1cnc[nH]1)NC(=O)[C@H](CCCNC(=N)N)NC(C)=O)C(=O)N[C@@H](CC(N)=O)C(=O)N[C@@H](CC(C)C)C(=O)N[C@H](C(=O)N[C@H](C(=O)N[C@@H](CCCNC(=N)N)C(=O)N[C@H]1CC[C@H]1C(=O)N[C@@H](CCCNC(=N)N)C(=O)N[C@@H](Cc1ccc(O)cc1)C(N)=O)[C@@H](C)O)[C@@H](C)CC (HELM PEPTIDE1{[ac].R.H.Y.I.N.L.I.T.R.[O=C([C@@H]1CC[C@@H]1N[*:1])[*:2]].R.Y.[am]}$$$$V2.0)
## Output 122

## Input State EC50 on Neuropeptide Y receptor type 4 (Homo sapiens, UniProt P50391). Entry: CC[C@H](C)[C@H](NC(=O)[C@H](Cc1ccc(O)cc1)NC(=O)[C@H](CCCNC(=N)N)NC(=O)[C@H](CCCNC(=N)N)NC(C)=O)C(=O)N[C@@H](CC(N)=O)C(=O)N[C@@H](CC(N)=O)C(=O)N[C@@H](CC(C)C)C(=O)N[C@H](C(=O)N[C@@H](CCCNC(=N)N)C(=O)N[C@H]1CC[C@H]1C(=O)N[C@@H](CCCNC(=N)N)C(=O)N[C@@H](Cc1ccc(O)cc1)C(N)=O)[C@@H](C)O (HELM PEPTIDE1{[ac].R.R.Y.I.N.N.L.T.R.[O=C([C@@H]1CC[C@@H]1N[*:1])[*:2]].R.Y.[am]}$$$$V2.0)
## Output 76

## Input State EC50 on Neuropeptide Y receptor type 4 (Homo sapiens, UniProt P50391). Entry: CC(=O)N[C@H](C(=O)N[C@@H](CCCNC(=N)N)C(=O)N[C@H]1CCC[C@H]1C(=O)N[C@@H](CCCNC(=N)N)C(=O)N[C@@H](Cc1ccc(O)cc1)C(N)=O)[C@@H](C)O (HELM PEPTIDE1{[ac].T.R.[O=C([C@@H]1CCC[C@@H]1N[*:1])[*:2]].R.Y.[am]}$$$$V2.0)
## Output 451

## Input State EC50 on Neuropeptide Y receptor type 4 (Homo sapiens, UniProt P50391). Entry: CC(=O)N[C@@H](Cc1ccc(O)cc1)C(=O)N[C@@H](CCCNC(=N)N)C(=O)N[C@H]1CCC[C@H]1C(=O)N[C@@H](CCCN=C(N)N)C(=O)N[C@@H](Cc1ccc(O)cc1)C(N)=O (HELM PEPTIDE1{[ac].Y.R.[O=C([C@@H]1CCC[C@@H]1N[*:1])[*:2]].R.Y.[am]}$$$$V2.0)
## Output 94
